biological target: binding partner of C5A (XPA23); assay: Biacore
property.name: fold affinity vs original
Show the value, then the unit it is measured in.

Task: Give recorded fold affinity vs original. C5A (XPA23) VH D106Q (antibody, V domains shown) VH: EVQLLESGGGLVQPGGSLRLSCAASGFTFSKYFMFWVRQAPGKGLEWVSVISPSGGMTRYADSVKGRFTISRDNSKNTLYLQMNSLRAEDTAVYYCARVGYGGNSQYWGQGTLVTVSS VL: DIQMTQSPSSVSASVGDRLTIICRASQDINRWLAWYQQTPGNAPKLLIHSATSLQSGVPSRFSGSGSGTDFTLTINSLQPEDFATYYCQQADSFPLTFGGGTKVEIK
Output: 0.02 fold

Task: Give recorded fold affinity vs original. C5A (XPA23) VH Y101R (antibody, V domains shown) VH: EVQLLESGGGLVQPGGSLRLSCAASGFTFSKYFMFWVRQAPGKGLEWVSVISPSGGMTRYADSVKGRFTISRDNSKNTLYLQMNSLRAEDTAVYYCARVGRGGNSDYWGQGTLVTVSS VL: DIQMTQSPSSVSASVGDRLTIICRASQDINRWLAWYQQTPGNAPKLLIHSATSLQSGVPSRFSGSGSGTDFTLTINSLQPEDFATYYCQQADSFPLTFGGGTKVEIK
Output: 0.85 fold

Task: Give recorded fold affinity vs original. C5A (XPA23) VH S54N (antibody, V domains shown) VH: EVQLLESGGGLVQPGGSLRLSCAASGFTFSKYFMFWVRQAPGKGLEWVSVISPNGGMTRYADSVKGRFTISRDNSKNTLYLQMNSLRAEDTAVYYCARVGYGGNSDYWGQGTLVTVSS VL: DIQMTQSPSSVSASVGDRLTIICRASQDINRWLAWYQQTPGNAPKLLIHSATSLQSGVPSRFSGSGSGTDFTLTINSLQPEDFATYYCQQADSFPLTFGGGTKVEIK
Output: 0.08 fold

Task: Give recorded fold affinity vs original. C5A (XPA23) VH Y101F (antibody, V domains shown) VH: EVQLLESGGGLVQPGGSLRLSCAASGFTFSKYFMFWVRQAPGKGLEWVSVISPSGGMTRYADSVKGRFTISRDNSKNTLYLQMNSLRAEDTAVYYCARVGFGGNSDYWGQGTLVTVSS VL: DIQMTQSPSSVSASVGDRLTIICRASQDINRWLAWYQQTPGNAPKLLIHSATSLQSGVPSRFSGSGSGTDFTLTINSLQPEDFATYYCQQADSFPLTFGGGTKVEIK
Output: 0.85 fold

Task: Give recorded fold affinity vs original. C5A (XPA23) VH F33K (antibody, V domains shown) VH: EVQLLESGGGLVQPGGSLRLSCAASGFTFSKYKMFWVRQAPGKGLEWVSVISPSGGMTRYADSVKGRFTISRDNSKNTLYLQMNSLRAEDTAVYYCARVGYGGNSDYWGQGTLVTVSS VL: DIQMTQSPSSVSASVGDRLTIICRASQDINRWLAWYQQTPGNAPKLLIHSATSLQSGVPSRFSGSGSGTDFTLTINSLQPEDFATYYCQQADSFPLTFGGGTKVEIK
Output: 0.85 fold
